Cited source: patent US9174979B2

Test system: human colon cancer HT-29 cells
Test: Inhibitory action on the proliferation of HT-29 cells
Assay type: cell-based
Settings: Homo sapiens, HT-29; 96 hours culture, TetraColor ONE
// map IC50 onto a label; ranges group A = under 0.01 µg/mL, group B = from 0.01 µg/mL up to 0.2 µg/mL, group C = 0.2 µg/mL and over

COc1cc2c3c(c4ccc(O)cc4c2cc1OC)C[C@H]1CCCN1C3.Cl
group B

Prompt: Lab note: which band did COc1cc2c3c(c4ccc(O)cc4c2cc1OC)C(O)C1(C)CCCN1C3.Cl (stereo not drawn) land in?
Completion: group C

Prompt: Lab note: which band did CCOc1cc2c3c(c4ccc(O)cc4c2cc1OCC)C[C@@H]1CCCN1C3.Cl land in?
Completion: group B

Prompt: Lab note: which band did Cl.Oc1ccc2c3c(c4cc5c(cc4c2c1)OCO5)CN1CCC[C@H]1C3 land in?
Completion: group C

Prompt: Lab note: which band did CCOc1cc2c3c(c4ccc(O)cc4c2cc1OCC)[C@H](O)[C@@H]1CCCN1C3.Cl land in?
Completion: group A

Prompt: Lab note: which band did COc1cc2c3c(c4ccc(O)cc4c2cc1OC)C(N)[C@@H]1CCCN1C3.Cl (stereo partly drawn) land in?
Completion: group C
